Measured values drawn from PubChem BioAssay AID2326 for this set.

- Experiment Summary: qHTS Assay for Inhibitors of Influenza NS1 Protein Function; further: actives are rising curves; nearly all actives have a fitted effect of over 50% in size
- Test Settings: series mostly up to 46.1 µM
In all, about 270,000 compounds went through this assay and about 1,100 (0.41%) were called active. About 3% were inconclusive and are not listed. The call rests on the fitted dose curve. For the sample, actives were picked, then their nearest neighbours and some compounds at random.
Answer with one of the outcomes class 1 (active), class 0 (inactive)

                                   compound    label
0  CCc1ccc(C(=O)OCC(=O)Nc2cccc(S(=O)(=O)NC3=NCCCCC3)c2)cc1  class 0
1  COC(=O)[C@H](C)[C@H]1C[C@]1(C)[C@H](NC(=O)OCc1ccccc1)c1ccccc1  class 0
2  COc1cccc(-n2c(SCC(=O)NC3CCCCC3)nc3n[nH]c(C)c3c2=N)c1  class 1
3  Cc1ccc(NS(=O)(=O)c2ccc(-c3coc(C)n3)cc2)c(C)c1  class 0
4  CCOC(=O)c1ccccc1N1C(=O)C2Sc3[nH]c(=O)sc3C(/C=C/c3ccccc3)C2C1=O (stereo not given)  class 0
5                 Cc1nc(N2CCOCC2)sc1C(=O)NN  class 0
6  CCC(C)c1ccc(NC(=S)N2CCCC2)cc1 (stereo not given)  class 0
7  Clc1ccccc1CSc1nnc(-c2ccco2)c(-c2ccco2)n1  class 0
8  FC(F)(F)C1CCCN(c2nsc3ccccc23)C1 (stereo not given)  class 0
9  O=C(CCCN1C(=O)/C(=C/c2cccs2)SC1=S)Nc1ccc(O)cc1  class 0

### Prompt For COc1ccc(Cn2c(=S)[nH]c3cc(C(=O)N4CCCCC4)ccc3c2=O)cc1 , which call appears in the assay record?
### Response class 0

### Prompt For O=C(NCCCc1ccccc1)C(=O)c1c[nH]c2ccccc12 , which call appears in the assay record?
### Response class 0

### Prompt For COc1ccccc1Cn1c(CO)nc2ccccc21 , which call appears in the assay record?
### Response class 0

### Prompt For CSc1nccc(NC(=O)c2ccc(C(C)(C)C)cc2)n1 , which call appears in the assay record?
### Response class 0

### Prompt For COc1ccc(-n2nc(C(=O)NCC(=O)N3CCCCCC3)c3ccccc3c2=O)cc1Cl , which call appears in the assay record?
### Response class 0

### Prompt For COc1ccc(Nc2nc(Cl)nc(NCc3ccco3)n2)cc1 , which call appears in the assay record?
### Response class 0

### Prompt For O=C1/C(=C/c2ccc(F)cc2)SC(=S)N1CCCC(=O)N1CCCCC1CCO (stereo not given) , which call appears in the assay record?
### Response class 0

### Prompt For Cc1cccc(NC(=O)c2ccc3c(=O)n(CC4CCCO4)c(=S)[nH]c3c2)c1 (stereo not given) , which call appears in the assay record?
### Response class 0

### Prompt For Cc1nonc1C1CCCN1C(=O)c1cc(COc2cccc(C(F)(F)F)c2)on1 (stereo not given) , which call appears in the assay record?
### Response class 0

### Prompt For O=C(CNC(=O)c1ccc(F)cc1)c1ccccc1 , which call appears in the assay record?
### Response class 0

### Prompt For COc1ccc(NCCc2ccccn2)cc1 , which call appears in the assay record?
### Response class 0

### Prompt For COCc1nc2ccccc2n1Cc1ccccc1Br , which call appears in the assay record?
### Response class 1
